Target: Orexin/Hypocretin receptor type 1 (Homo sapiens)
Assay: antagonists of human orexin 1 receptor (OX1R) (AID 485270);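 note: 0% = agonist challenge alone and 100% = reference antagonist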
Conditions: OX1R-expressing cells, FRET antagonist read-out; at 6.6 µM; active compounds read high
Screen size: about 330,000 compounds; about 5,800 (1.8%) were called active. The sample as a whole holds a higher share of actives than the screen did.
REPORTED ENDPOINT: inhibition

Prompt: # inhibition lookup, item O=C(OC1CCOC1=O)c1ccc(-c2nc3ccccc3s2)s1 (stereo unspecified)
Completion: 119% (active)

Prompt: # inhibition lookup, item "Cc1cccc(NC(=O)c2ccc3nsnc3c2)c1C"
Completion: 34.9% (inactive)

Prompt: # inhibition lookup, item "O=C(Oc1ccc(Br)cc1C(=S)N1CCOCC1)c1cccc([N+](=O)[O-])c1"
Completion: 18.1% (inactive)

Prompt: # inhibition lookup, item "Clc1ccccc1SCc1nc2ccccc2[nH]1"
Completion: 24.1% (inactive)

Prompt: # inhibition lookup, item "O=C(COC(=O)c1ccc(O)cc1O)c1ccc2c(c1)OCCO2"
Completion: 9.27% (inactive)

Prompt: # inhibition lookup, item "CSc1ccccc1OCc1cc(C(=O)N2C[C@H]3CC[C@H]2C3)no1"
Completion: 38.3% (inactive)

Prompt: # inhibition lookup, item "c1ccc(-c2nnc(SCc3nc4ccccc4[nH]3)o2)cc1"
Completion: 16.7% (inactive)

Prompt: # inhibition lookup, item "O=C(Nc1cccc(NC(=O)c2cccc(F)c2)c1)c1ccccc1"
Completion: 16.8% (inactive)

Prompt: # inhibition lookup, item "O=C(NCCCN1CCOCC1)c1cn(-c2ccccc2)nc1-c1ccc(F)cc1"
Completion: 1.24% (inactive)

Prompt: # inhibition lookup, item "CSc1ccccc1OCc1cc(C(=O)N(C)CCc2c(C)n[nH]c2C)no1"
Completion: 43.7% (active)

Prompt: # inhibition lookup, item "c1ccc2c(CSCc3nc4ccccc4[nH]3)cccc2c1"
Completion: 90.8% (active)

---

Target: Orexin/Hypocretin receptor type 1 (Homo sapiens)
Test: antagonists of human orexin 1 receptor (OX1R) (AID 485270);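 note: 0% = agonist challenge alone and 100% = reference antagonist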
Settings: OX1R-expressing cells, FRET antagonist read-out; at 6.6 µM; active compounds read high
Screen size: about 330,000 compounds; about 5,800 (1.8%) were called active. The sample as a whole holds a higher share of actives than the screen did.
Can you tell me inhibition for the items I'm about to list?
Report the value in % with no unit label.

Prompt: # inhibition lookup, item CC(Sc1ccccc1F)C(=O)Nc1cccc(S(=O)(=O)N2CCOCC2)c1 (stereo not given)
Completion: 9.63

Prompt: # inhibition lookup, item "O=[N+]([O-])c1ncc(Br)cc1Nc1ccccc1"
Completion: 54.1

Prompt: # inhibition lookup, item "COc1cc(OC)cc(-c2c(C#Cc3ccsc3)c3cc(-c4ccc(SC)cc4)ccc3n2C)c1"
Completion: 7.83

Prompt: # inhibition lookup, item "O=C(OCC(=O)N1CCCCC1)c1ccc(OC(F)(F)F)cc1"
Completion: 10.9

Prompt: # inhibition lookup, item "CC[C@@H]1CCCCc2ccccc2[C@@H](C(=O)C[C@H](O)CC(C)=O)OC1=O"
Completion: 5.92

---

Can you tell me inhibition for the items I'm about to list?
Target: Orexin/Hypocretin receptor type 1 (Homo sapiens) (UniProt O43613)
Sequence (O43613 whole entry, looked up): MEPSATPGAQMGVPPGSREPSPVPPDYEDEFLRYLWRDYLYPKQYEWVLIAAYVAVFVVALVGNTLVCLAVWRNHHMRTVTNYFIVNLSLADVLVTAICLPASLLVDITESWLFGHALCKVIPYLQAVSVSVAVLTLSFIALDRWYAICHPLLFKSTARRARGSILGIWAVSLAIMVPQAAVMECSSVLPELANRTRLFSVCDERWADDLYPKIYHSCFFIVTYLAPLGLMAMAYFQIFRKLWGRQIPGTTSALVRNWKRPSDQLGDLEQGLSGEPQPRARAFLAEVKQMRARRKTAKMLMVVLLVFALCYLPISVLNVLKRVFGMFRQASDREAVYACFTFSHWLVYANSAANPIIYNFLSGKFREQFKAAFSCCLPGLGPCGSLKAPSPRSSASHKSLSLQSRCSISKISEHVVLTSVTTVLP
Assay: antagonists of human orexin 1 receptor (OX1R) (AID 485270);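 note: 0% = agonist challenge alone and 100% = reference antagonist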
Details: OX1R-expressing cells, FRET antagonist read-out; at 6.6 µM; active compounds read high
About 5,800 (1.8%) of roughly 330,000 compounds were called active. What follows is part of a selection rich in actives, with near analogues and random picks from the rest.
Report the value in % with no unit label.

Prompt: # inhibition lookup, item "Nc1nc(COC(=O)CCC(=O)c2ccc(Cl)cc2)nc(Nc2ccccc2)n1"
Completion: 37.4

Prompt: # inhibition lookup, item CC(OC(=O)c1ccc([N+](=O)[O-])cc1)C(=O)NCC1CCCCC1 (stereo not given)
Completion: 18.2

Prompt: # inhibition lookup, item "O=C(NCc1ccccc1)c1onc(CSc2ccncc2)c1C(=O)NCc1ccccc1"
Completion: 16.4

Prompt: # inhibition lookup, item "O=C(Nc1ccccc1C(=O)Nc1ccncc1)c1ccc([N+](=O)[O-])cc1"
Completion: 16.2

Prompt: # inhibition lookup, item "CC(C)n1cnc2c(NCc3ccccc3)cc(N[C@@H](CO)Cc3ccccc3)cc21"
Completion: 33.2

Prompt: # inhibition lookup, item "O=C(Cc1cccs1)NCc1cccc(C(F)(F)F)c1"
Completion: -2.11

Prompt: # inhibition lookup, item "O=C(COC(=O)c1ccccc1O)NCc1ccco1"
Completion: 9.75

Prompt: # inhibition lookup, item CN(C(=O)COC(=O)Cc1ccccc1[N+](=O)[O-])C1CCS(=O)(=O)C1 (stereo not given)
Completion: 3.39

Prompt: # inhibition lookup, item "COc1ccc(Cl)cc1NC(=O)COC(=O)c1ccc(Br)o1"
Completion: 5.94

Prompt: # inhibition lookup, item "CCN(CC)C(=O)[C@H]1C[C@H](CC(=O)NCC23CC4CC(CC(C4)C2)C3)C(=O)N2CCc3c([nH]c4cc(CCC(=O)N(C)C)ccc34)[C@]12C"
Completion: 5.23

Prompt: # inhibition lookup, item "COC(=O)c1ccc(/C=N/NC(=O)C(=O)N2CCCCCC2)cc1"
Completion: 44.8

Prompt: # inhibition lookup, item "C=CCC[C@H](Cc1ccc(F)cc1)C(=O)OC[C@@H](Cc1c[nH]c2ccccc12)NC(=O)[C@H](CC=C)CC(=O)N[C@H](CO)Cc1ccccc1"
Completion: 3.33

Prompt: # inhibition lookup, item "Cc1ccc(C(=O)OCc2nc(N)nc(Nc3ccccc3C)n2)cc1"
Completion: -2.57

Prompt: # inhibition lookup, item "Cc1cccc(NC(=O)c2ccc(S(=O)(=O)N(C)c3ccccc3)cc2)n1"
Completion: 9.18

Prompt: # inhibition lookup, item "O=C(c1ccncc1)c1ccc([N+](=O)[O-])cc1"
Completion: 163

Prompt: # inhibition lookup, item "O=C(NCc1ccccc1)c1onc(CSc2nc3ccccc3[nH]2)c1C(=O)NCc1ccccc1"
Completion: 71.2

Prompt: # inhibition lookup, item "O=[N+]([O-])c1c(NCCO)cc(Sc2nc3ccccc3s2)c2nonc12"
Completion: 90.3

Prompt: # inhibition lookup, item "CN(CC(=O)NCCc1ccc(S(N)(=O)=O)cc1)CC(=O)Nc1ccc(F)c(F)c1F"
Completion: -2.07

Prompt: # inhibition lookup, item COCCCNC(=O)CC1C[C@H](C(=O)N2CCCCC2)[C@@]2(CCc3ccccc3)c3[nH]c4ccccc4c3CCN2C1=O (stereo not given in full)
Completion: 2.77

Prompt: # inhibition lookup, item "COc1ccccc1C(=O)COC(=O)COc1ccc(C#N)cc1"
Completion: 5.7
